target.or.test.system: T1, 4H2162-bA
T1 chain: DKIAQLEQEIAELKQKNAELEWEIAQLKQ
run.description: two-hybrid library CCNG1;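 also: natural log of median RNA to DNA barcode read ratio; higher means stronger binding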
value.type: interaction score
Kindly provide the number alone.

QUERY: Please report the recorded interaction score for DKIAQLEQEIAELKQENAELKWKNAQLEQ [4H2143-bA] .
RESULT: -0.188

QUERY: Please report the recorded interaction score for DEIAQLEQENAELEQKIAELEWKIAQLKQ [4H166-bA] .
RESULT: 0.273

QUERY: Please report the recorded interaction score for DENQQLEQKIQELKQENQELKWEIQELEQ [4H1369-bN] .
RESULT: -0.463

QUERY: Please report the recorded interaction score for DKIAQLEQEIAELKQKNAELEWEIAQLKQ [4H2162-bA] .
RESULT: 0.667

Taken from paper PMC10397247.
